# System: S. aureus RN450
# assay-details: In vivo anti-bacterial activity, S. aureus model
# settings: Staphylococcus aureus, sc; mice, lethal IP S. aureus RN450, subcutaneous, 24 hours; read-out: PD50 (dose that protects 50% of the animals)
Here, each record is paired with measured ED50 data.
metric: ED50 (mg/kg)

compound: CON(C)Cc1ccc(O)c2c1C[C@H]1C[C@H]3[C@H](N(C)C)C(O)=C(C(N)=O)C(=O)[C@@]3(O)C(O)=C1C2=O [P]
metric: ED50
measure-unit: mg/kg
obs-value: 0.13

compound: C[C@H]1c2cccc(O)c2C(=O)C2=C(O)[C@]3(O)C(=O)C(C(N)=O)=C(O)[C@@H](N(C)C)[C@@H]3[C@@H](O)[C@@H]21 [Doxycycline, reference compound]
metric: ED50
measure-unit: mg/kg
obs-value: 0.13

compound: CN(C)[C@@H]1C(O)=C(C(N)=O)C(=O)[C@@]2(O)C(O)=C3C(=O)c4c(O)ccc(CNOCC(F)F)c4C[C@H]3C[C@@H]12 [DX]
metric: ED50
measure-unit: mg/kg
obs-value: 0.58

compound: CO/N=C/c1cc(N(C)C)c2c(c1O)C(=O)C1=C(O)[C@]3(O)C(=O)C(C(N)=O)=C(O)[C@@H](N(C)C)[C@@H]3C[C@@H]1C2 [V]
metric: ED50
measure-unit: mg/kg
obs-value: 1.4

compound: CNc1c(-c2ccc(O)c3c2C[C@H]2C[C@H]4[C@H](N(C)C)C(O)=C(C(N)=O)C(=O)[C@@]4(O)C(O)=C2C3=O)c(=O)c1=O [AD]
metric: ED50
measure-unit: mg/kg
obs-value: 4.54

compound: C/C(=N\OC(C)(C)C)c1cc(N)c(O)c2c1C[C@H]1C[C@H]3[C@H](N(C)C)C(O)=C(C(N)=O)C(=O)[C@@]3(O)C(O)=C1C2=O [Q]
metric: ED50
measure-unit: mg/kg
obs-value: 0.45
